- procedureText: small-molecule microarray binders of probe aShh, primary screen, biochemical, biotinylated probe, 635/667 nm fluorescence (AID 1114);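 also: probe is biotin-labelled aShh protein from a stem cell growth factor screen; measures binding of labelled protein to compounds printed on the slide; score merges feature fluorescence at 667 nm with signal-to-noise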
- testConditions: higher = more signal
Listing of entries alongside the reported composite z-score.
Give the figure only, with no unit attached.

molecule: CCOc1cc(C(O)C2C=CC3C(=O)N(C)C(=O)C3N2Nc2ccccc2)ccc1O (centres undefined)
composite z-score: -0.155
--
molecule: Cc1ccccc1C(O)C1C=CC2C(=O)N(C)C(=O)C2N1N(c1ccccc1)c1ccccc1 (centres undefined)
composite z-score: 0.0582
--
molecule: O=C1O[C@H](c2ccccc2)[C@H](c2ccccc2)N2[C@H]1[C@@H](C(=O)Nc1nc3ccccc3s1)[C@]1(C(=O)Nc3ccc(C#CCCO)cc31)[C@H]2c1ccc(O)cc1
composite z-score: -0.0035

Recorded composite z-score (molecule COc1ccc([Si](C)(C)[C@@H]2[C@@H](CCO)O[C@]3(C(=O)N(Cc4ccc(N5CCCCC5=O)cc4)c4ccccc43)[C@H]2C)cc1 ): 0.191
